target.of.assay: T1, HLA-A*02:01 (human)
T1 construct: MHC class I monomer made peptide-receptive by UV cleavage of a UV-sensitive ligand; also called peptide-receptive MHC molecules
procedure.text: UV-ligand exchange ELISA (anti-β2m), peptide exchange yield grade

| binder | peptide exchange yield |
| --- | --- |
| KLLEVDLDTV [peptide KLLEVDLDTV (SEQ ID NO: 99)] | 50 to 75% |
| LLADEDSSYL [peptide LLADEDSSYL (SEQ ID NO: 27)] | 20 to 50% |
| NLFDLGGQYLRV [peptide NLFDLGGQYLRV (SEQ ID NO: 181)] | 50 to 75% |
| KILVSLIEV [peptide KILVSLIEV (SEQ ID NO: 102)] | 50 to 75% |
| LLYGKYVSV [peptide LLYGKYVSV (SEQ ID NO: 31)] | 50 to 75% |
| LTIEDGIFEV [peptide LTIEDGIFEV (SEQ ID NO: 83)] | 50 to 75% |
| FLLAEDTKV [peptide FLLAEDTKV (SEQ ID NO: 13)] | 50 to 75% |
| KTLERSYLL [peptide KTLERSYLL (SEQ ID NO: 123)] | 20 to 50% |
| SLNDLEKDVMLL [peptide SLNDLEKDVMLL (SEQ ID NO: 67)] | 50 to 75% |
| GLSEGHTFQV [peptide GLSEGHTFQV (SEQ ID NO: 101)] | 50 to 75% |
| ILYDLQQNL [peptide ILYDLQQNL (SEQ ID NO: 113)] | 20 to 50% |
| LLGELPRLLLL [peptide LLGELPRLLLL (SEQ ID NO: 110)] | 50 to 75% |
| SLIERDLKL [peptide SLIERDLKL (SEQ ID NO: 157)] | 50 to 75% |
| KLQEEIPVL [peptide KLQEEIPVL (SEQ ID NO: 135)] | 20 to 50% |
| YLTRHLAVL [peptide YLTRHLAVL (SEQ ID NO: 7)] | 20 to 50% |
| ALLGGGPYML [peptide ALLGGGPYML (SEQ ID NO: 107)] | 50 to 75% |
| TLLGGKEAQALGV [peptide TLLGGKEAQALGV (SEQ ID NO: 175)] | 50 to 75% |
| GLGGSQLIDTHL [peptide GLGGSQLIDTHL (SEQ ID NO: 130)] | 20 to 50% |
| LLNEILEQV [peptide LLNEILEQV (SEQ ID NO: 140)] | 50 to 75% |
| FLDKPEDVLL [peptide FLDKPEDVLL (SEQ ID NO: 14)] | 20 to 50% |
| SLVQRVETI (also called ECT2-001) [peptide SLVQRVETI (SEQ ID NO: 142)] | 50 to 75% |
| TLAKYLMEL [peptide TLAKYLMEL (SEQ ID NO: 126)] | 50 to 75% |
| RLIPDTLYSV [peptide RLIPDTLYSV (SEQ ID NO: 3)] | ≥ 75% |
| GLLDPSVFHV [peptide GLLDPSVFHV (SEQ ID NO: 158)] | 50 to 75% |
| LLADLKTMV [peptide LLADLKTMV (SEQ ID NO: 118)] | 50 to 75% |
| GMLNEAEGKAIKL [peptide GMLNEAEGKAIKL (SEQ ID NO: 69)] | 20 to 50% |
| AILDAHIEV [peptide AILDAHIEV (SEQ ID NO: 95)] | ≥ 75% |
| SLMMTIINL [peptide SLMMTIINL (SEQ ID NO: 156)] | ≥ 75% |
| LLNDRIWLA [peptide LLNDRIWLA (SEQ ID NO: 144)] | 50 to 75% |
| LQLDKEFQL [peptide LQLDKEFQL (SEQ ID NO: 15)] | 50 to 75% |
| KLLDVVHPA [peptide KLLDWHPA (SEQ ID NO: 131)] | 20 to 50% |
